- subject-of-test: MMP2 (Homo sapiens, UniProt P08253)
- Sequence (P08253 110-660): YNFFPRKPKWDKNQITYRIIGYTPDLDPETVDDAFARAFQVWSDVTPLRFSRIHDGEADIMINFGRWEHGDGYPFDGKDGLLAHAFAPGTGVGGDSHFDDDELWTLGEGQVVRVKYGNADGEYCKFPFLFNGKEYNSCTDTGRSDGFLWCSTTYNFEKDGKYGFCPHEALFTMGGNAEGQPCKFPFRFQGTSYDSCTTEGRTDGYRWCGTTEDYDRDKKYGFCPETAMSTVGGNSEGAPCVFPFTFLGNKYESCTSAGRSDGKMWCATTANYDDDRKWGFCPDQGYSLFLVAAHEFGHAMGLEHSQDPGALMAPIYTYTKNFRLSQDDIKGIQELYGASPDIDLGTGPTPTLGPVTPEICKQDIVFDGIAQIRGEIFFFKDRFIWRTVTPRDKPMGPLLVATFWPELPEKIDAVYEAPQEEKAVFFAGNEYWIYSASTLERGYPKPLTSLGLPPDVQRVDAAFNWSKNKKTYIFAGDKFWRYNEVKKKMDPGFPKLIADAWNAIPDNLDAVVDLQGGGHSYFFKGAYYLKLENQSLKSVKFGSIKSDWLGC
- experiment-summary: Peptide probe cleavage assay (internally quenched MCA/DNP probes) with MMP2
- Format: biochemical
- stated-conditions: 20 μM internally quenched peptide probe, 20 nM protease, 37° C.
Starred links: 1 amine or outer side, 2 acyl side, 3 side chain; linkers in the order of their positions; H or OH if unused. No end group written: not given here. *: point of attachment. K(DNP) = O=C([C@H](CCCCNc1ccc([N+](=O)[O-])cc1[N+](=O)[O-])N[*:1])[*:2]; Mca = COc1ccc2c(CC(=O)*)cc(=O)oc2c1
Each record here notes measured Probe Cleavage (pM/s) MMP2.
Hi! Could you send only the number? It should be in pM/s, unit omitted.

substance: (MCA)-Gly-Ser-Trp-Gly-Leu-Ser-Gly-Arg-Ser-Gly-Lys (DNP)-D-Arg (Mca-GSWGLSGRSG-{K(DNP)-dR}; SMILES COc1ccc2c(CC(=O)NCC(=O)N[C@@H](CO)C(=O)N[C@@H](Cc3c[nH]c4ccccc34)C(=O)NCC(=O)N[C@@H](CC(C)C)C(=O)N[C@@H](CO)C(=O)NCC(=O)N[C@@H](CCCNC(=N)N)C(=O)N[C@@H](CO)C(=O)NCC(=O)N[C@@H](CCCCNc3ccc([N+](=O)[O-])cc3[N+](=O)[O-])C(=O)N[C@H](CCCNC(=N)N)C(=O)O)cc(=O)oc2c1) [CM WGLSGRS]
Probe Cleavage (pM/s) MMP2: 66.4

substance: CM PWGLRS: internally quenched MCA/DNP peptide probe of design SEQ ID NO: 698, CM PWGLRS (SEQ ID NO: 48) (also: MCA/DNP internal quench labels, places not given here)
Probe Cleavage (pM/s) MMP2: 3800

substance: CM AWGLSGRS: internally quenched MCA/DNP probe SEQ ID NO: 699 with one residue replaced by Ala, CM AWGLSGRS (SEQ ID NO: 686) (not fully specified (N-terminus, C-terminus); also: MCA/DNP internal quench labels, places not given here)
Probe Cleavage (pM/s) MMP2: 816

Attention now shifts to the item below.
What does the data say about its Probe Cleavage (pM/s) MMP2? Entry: CM PWGASGRS: internally quenched MCA/DNP probe SEQ ID NO: 699 with one residue replaced by Ala, CM PWGASGRS (SEQ ID NO: 689) (not fully specified (N-terminus, C-terminus); also: MCA/DNP internal quench labels, places not given here)
202
